Assignment: determine reported TGI for the given compounds.
# System: RPMI-8226 leukemia
# test.method.notes: NCI tumour cell line growth inhibition, 48 h

Q: # assay system RPMI-8226 leukemia: give TGI of COc1cccc(NC2=C(Cl)C(=O)N(Cc3ccc(Cl)cc3)C2=O)c1
Result: > 20.3 µM

Q: # assay system RPMI-8226 leukemia: give TGI of O=[N+]([O-])C(C=C(n1nnc2ccccc21)n1nnc2ccccc21)=C(n1nnc2ccccc21)n1nnc2ccccc21
Result: > 100 µM

Q: # assay system RPMI-8226 leukemia: give TGI of O=c1c2ccccc2nc(-c2ccccc2)n1NC(=S)Nc1cccc(Cl)c1
Result: > 100 µM

Q: # assay system RPMI-8226 leukemia: give TGI of O=Cc1ccc(N2CCN(c3ccc(C=O)cc3)CC2)cc1
Result: > 100 µM

Q: # assay system RPMI-8226 leukemia: give TGI of Cc1ccc2nc(NC(=O)C(=O)CC(=O)c3cccc4ccccc34)sc2c1
Result: > 100 µM
